Quick record: IC50, UniProt:P06493.
readout_name: IC50

CC(CN(C)C)NC(=O)c1ccc(-c2c(F)cnc3[nH]c4cnc(-c5cccnc5)cc4c23)cc1 (stereo not shown) | 1000 to 5000 nM
CN1CCN(CCNC(=O)c2ccc(-c3c(F)cnc4[nH]c5cnc(-c6cccnc6)cc5c34)cc2)CC1 | 1000 to 5000 nM
CS(=O)(=O)NCCNC(=O)c1ccc(-c2c(F)cnc3[nH]c4cnc(-c5cccnc5)cc4c23)cc1 | 100 to 1000 nM
CC1CCCCN1CCNC(=O)c1ccc(-c2c(F)cnc3[nH]c4cnc(-c5cccnc5)cc4c23)cc1 (stereo not shown) | 100 to 1000 nM

###

# subject_of_test: CDK1 (Homo sapiens)
# Sequence (P06493 whole entry, species assumed): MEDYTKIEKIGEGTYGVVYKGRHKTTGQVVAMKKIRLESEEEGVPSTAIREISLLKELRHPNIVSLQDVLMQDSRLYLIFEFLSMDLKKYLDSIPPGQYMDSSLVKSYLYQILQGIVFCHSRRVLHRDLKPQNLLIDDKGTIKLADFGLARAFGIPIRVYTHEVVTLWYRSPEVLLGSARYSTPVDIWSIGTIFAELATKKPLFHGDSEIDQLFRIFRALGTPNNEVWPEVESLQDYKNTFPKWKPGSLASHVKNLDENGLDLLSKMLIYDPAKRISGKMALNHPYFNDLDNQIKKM
# Sequence (P14635 whole entry partner, species assumed): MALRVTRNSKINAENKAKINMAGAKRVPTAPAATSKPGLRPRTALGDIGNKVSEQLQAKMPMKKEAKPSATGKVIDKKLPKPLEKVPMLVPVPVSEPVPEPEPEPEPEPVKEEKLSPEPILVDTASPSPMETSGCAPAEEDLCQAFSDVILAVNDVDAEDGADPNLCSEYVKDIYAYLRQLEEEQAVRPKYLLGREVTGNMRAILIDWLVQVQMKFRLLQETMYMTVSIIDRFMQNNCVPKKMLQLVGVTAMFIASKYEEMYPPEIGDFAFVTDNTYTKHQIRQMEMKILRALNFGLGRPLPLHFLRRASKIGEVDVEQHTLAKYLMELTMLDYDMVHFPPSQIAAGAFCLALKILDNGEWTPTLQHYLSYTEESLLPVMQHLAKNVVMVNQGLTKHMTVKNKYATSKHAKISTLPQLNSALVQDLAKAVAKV
readout_name: IC50

CCN(CC1CCN(C)C1)C(=O)c1ccc(-c2c(F)cnc3[nH]c4cnc(-c5cccnc5)cc4c23)cc1 (stereo not drawn) | 1 to 5 µM
Cc1n[nH]cc1CNC(=O)c1ccc(-c2c(F)cnc3[nH]c4cnc(-c5cccnc5)cc4c23)cc1 | 0.1 to 1 µM
CN1CC2CCN(C(=O)c3ccc(-c4c(F)cnc5[nH]c6cnc(-c7cccnc7)cc6c45)cc3)CC2C1 (stereo not drawn) | 1 to 5 µM
O=C(NCCCN1CCOCC1)c1ccc(-c2c(F)cnc3[nH]c4cnc(-c5cccnc5)cc4c23)cc1 | 1 to 5 µM
CC(C)(N)CNC(=O)c1ccc(-c2c(F)cnc3[nH]c4cnc(-c5cccnc5)cc4c23)cc1 | 1 to 5 µM
O=C(NCc1ccnc(O)c1)c1ccc(-c2c(F)cnc3[nH]c4cnc(-c5cccnc5)cc4c23)cc1 | 0.1 to 1 µM
CC(N)(CNC(=O)c1ccc(-c2c(F)cnc3[nH]c4cnc(-c5cccnc5)cc4c23)cc1)C(F)(F)F (stereo not drawn) | 0.1 to 1 µM
CCN1CCCC1CNC(=O)c1ccc(-c2c(F)cnc3[nH]c4cnc(-c5cccnc5)cc4c23)cc1 (stereo not drawn) | 1 to 5 µM
CN(C)CCNC(=O)c1cccc(-c2c(F)cnc3[nH]c4cnc(-c5cccnc5)cc4c23)c1 | 1 to 5 µM
CN1CCN(NC(=O)c2ccc(-c3c(F)cnc4[nH]c5cnc(-c6cnn(C)c6Cl)cc5c34)cc2)CC1 | 0.1 to 1 µM
CN1CC(NC(=O)c2ccc(-c3c(F)cnc4[nH]c5cnc(-c6cccnc6)cc5c34)cc2)C1 | 0.1 to 1 µM
CN1CCN(NC(=O)c2ccc(-c3c(F)cnc4[nH]c5cnc(-c6cnn(C)c6)cc5c34)cc2)CC1 | 1 to 5 µM
O=C(NCCCN1CCCC1=O)c1ccc(-c2c(F)cnc3[nH]c4cnc(-c5cccnc5)cc4c23)cc1 | 1 to 5 µM
CC(CNC(=O)c1ccc(-c2c(F)cnc3[nH]c4cnc(-c5cccnc5)cc4c23)cc1)N1CCCC1 (stereo not drawn) | 1 to 5 µM
CCN1CCC[C@H]1CNC(=O)c1ccc(-c2c(F)cnc3[nH]c4cnc(-c5cccnc5)cc4c23)cc1 | 1 to 5 µM

###

# subject_of_test: Pim-3 (Homo sapiens, UniProt Q86V86)
# Construct: full-length human recombinant His6-labelled Pim-1, Pim-2 or Pim-3 protein; His6
# test_details: TR-FRET assay of Pim kinase activity (phosphorylation of Bad Ser112), Pim-3
# assay_context: ATP 40 μM, read-out: IC50 Pim3
pIC50: −log10 of the molar value.
readout_name: pIC50

CCN(CCN(C)C)C(=O)c1ccc(-c2c(F)cnc3[nH]c4cnc(-c5cccnc5)cc4c23)cc1 | > 7.00
COCCNC(=O)c1ccc(-c2c(F)cnc3[nH]c4cnc(-c5cccnc5)cc4c23)cc1 | 6.00 to 7.00
CN1CCN(NC(=O)c2ccc(-c3c(F)cnc4[nH]c5cnc(-c6cccnc6)cc5c34)cc2)CC1 | > 7.00
CN(C)CCCNC(=O)c1ccc(-c2c(F)cnc3[nH]c4cnc(-c5cccnc5)cc4c23)cc1 | > 7.00
O=C(NCCNc1ccccn1)c1ccc(-c2c(F)cnc3[nH]c4cnc(-c5cccnc5)cc4c23)cc1 | > 7.00
COCCCNC(=O)c1ccc(-c2c(F)cnc3[nH]c4cnc(-c5cccnc5)cc4c23)cc1 | 6.00 to 7.00
CN1C[C@@H]2CCN(C(=O)c3ccc(-c4c(F)cnc5[nH]c6cnc(-c7cccnc7)cc6c45)cc3)[C@@H]2C1 | > 7.00
CC(CNC(=O)c1ccc(-c2c(F)cnc3[nH]c4cnc(-c5cccnc5)cc4c23)cc1)N1CCCC1 (stereo not drawn) | > 7.00
NCC(F)(F)CNC(=O)c1ccc(-c2c(F)cnc3[nH]c4cnc(-c5cccnc5)cc4c23)cc1 | > 7.00
N[C@H]1CCC[C@@H]1NC(=O)c1ccc(-c2c(F)cnc3[nH]c4cnc(-c5cccnc5)cc4c23)cc1 | > 7.00
O=C(NCc1nnn[nH]1)c1ccc(-c2c(F)cnc3[nH]c4cnc(-c5cccnc5)cc4c23)cc1 | 6.00 to 7.00
CN1CCCC1CCNC(=O)c1ccc(-c2c(F)cnc3[nH]c4cnc(-c5cccnc5)cc4c23)cc1 (stereo not drawn) | > 7.00
N[C@@H]1CCC[C@H]1NC(=O)c1ccc(-c2c(F)cnc3[nH]c4cnc(-c5cccnc5)cc4c23)cc1 | > 7.00
CN1CCC(N(C)C(=O)c2ccc(-c3c(F)cnc4[nH]c5cnc(-c6cccnc6)cc5c34)cc2)C1 (stereo not drawn) | 6.00 to 7.00
CN1CCC(NC(=O)c2ccc(-c3c(F)cnc4[nH]c5cnc(-c6cnn(C)c6Cl)cc5c34)cc2)CC1 | > 7.00

###

Below: a set of entries, each annotated with reported IC50.
# subject_of_test: Pim-3 (Homo sapiens, UniProt Q86V86)
# Construct: full-length human recombinant His6-labelled Pim-1, Pim-2 or Pim-3 protein; His6
# test_details: TR-FRET assay of Pim kinase activity (phosphorylation of Bad Ser112), Pim-3
# assay_context: ATP 40 μM, read-out: IC50 Pim3
readout_name: IC50

CCN(CC1CCN(C)C1)C(=O)c1ccc(-c2c(F)cnc3[nH]c4cnc(-c5cccnc5)cc4c23)cc1 (stereo not shown) [Example 79] | < 100 nM
CN(C)CCCNC(=O)c1ccc(-c2c(F)cnc3[nH]c4cnc(-c5cnn(C)c5)cc4c23)cc1 [Example 38] | < 100 nM
O=C(NCCCN1CCCC1)c1ccc(-c2c(F)cnc3[nH]c4cnc(-c5cccnc5)cc4c23)cc1 [Example 20] | < 100 nM
O=C(NCCCN1CCOCC1)c1ccc(-c2c(F)cnc3[nH]c4cnc(-c5cccnc5)cc4c23)cc1 [Example 19] | < 100 nM
CC(C)(CNC(=O)c1ccc(-c2c(F)cnc3[nH]c4cnc(-c5cccnc5)cc4c23)cc1)N1CCCC1 [Example 58] | < 100 nM
CC(CN(C)C)NC(=O)c1ccc(-c2c(F)cnc3[nH]c4cnc(-c5cccnc5)cc4c23)cc1 (stereo not shown) [Example 68] | < 100 nM
CC(C)N(CCNC(=O)c1ccc(-c2c(F)cnc3[nH]c4cnc(-c5cccnc5)cc4c23)cc1)C(C)C [Example 66] | < 100 nM
CCN1CCCC(NC(=O)c2ccc(-c3c(F)cnc4[nH]c5cnc(-c6cccnc6)cc5c34)cc2)C1 (stereo not shown) [Example 54] | < 100 nM
CC(N)(CNC(=O)c1ccc(-c2c(F)cnc3[nH]c4cnc(-c5cccnc5)cc4c23)cc1)C(F)(F)F (stereo not shown) [Example 91] | 100 to 1000 nM
N[C@H]1CCCC[C@@H]1NC(=O)c1ccc(-c2c(F)cnc3[nH]c4cnc(-c5cccnc5)cc4c23)cc1 [Example 84] | < 100 nM
CN1CCC(NC(=O)c2ccc(-c3c(F)cnc4[nH]c5cnc(-c6cccnc6)cc5c34)cc2)CC1 [Example 22] | < 100 nM
CCN1CCCC1CNC(=O)c1ccc(-c2c(F)cnc3[nH]c4cnc(-c5cccnc5)cc4c23)cc1 (stereo not shown) [Example 51] | < 100 nM
Cn1cc(-c2cc3c(cn2)[nH]c2ncc(F)c(-c4ccc(C(N)=O)cc4)c23)cn1 [Example 104] | < 100 nM
COCCN1CCN(C(=O)c2ccc(-c3c(F)cnc4[nH]c5cnc(-c6cccnc6)cc5c34)cc2)CC1 [Example 72] | 100 to 1000 nM
CNCCNC(=O)c1ccc(-c2c(F)cnc3[nH]c4cnc(-c5cccnc5)cc4c23)cc1 [Example 88] | < 100 nM
O=C(NC1CC1)c1ccc(-c2c(F)cnc3[nH]c4cnc(-c5cccnc5)cc4c23)cc1 [Example 11] | 100 to 1000 nM
CCN(CC)CCN(C)C(=O)c1ccc(-c2c(F)cnc3[nH]c4cnc(-c5cccnc5)cc4c23)cc1 [Example 71] | < 100 nM
CN(C)CCNC(=O)c1ccc(-c2c(F)cnc3[nH]c4cnc(-c5cnn(C)c5)cc4c23)cc1 [Example 37] | < 100 nM
CN1CCN(NC(=O)c2ccc(-c3c(F)cnc4[nH]c5cnc(-c6cnn(C)c6Cl)cc5c34)cc2)CC1 [Example 106] | < 100 nM
CN(C)CCNC(=O)c1ccc(-c2c(F)cnc3[nH]c4cnc(-c5cccnc5)cc4c23)cn1 [Example 112] | 100 to 1000 nM
CN(C)CC(C)(C)CNC(=O)c1ccc(-c2c(F)cnc3[nH]c4cnc(-c5cccnc5)cc4c23)cc1 [Example 52] | < 100 nM
CN(C)CCCCNC(=O)c1ccc(-c2c(F)cnc3[nH]c4cnc(-c5cccnc5)cc4c23)cc1 [Example 75] | < 100 nM

Values from patent US20120208809A1
